Data provenance is patent US20220135687A1.

- target.entity: T1, human PD-L1 expressed on CHO-K1 cells (Genscript, Cat #M00543) (human, UniProt Q9NZQ7 19-290)
- T1 construct: also called PD-L1 cell line
- method.description: FACS, CHO-K1/human PD-L1 cells
- Procedure: PD-L1 stable cell line binding activity assessment of 12 mouse mAbs was carried out using FACS. […] Cells were washed again with FACS buffer and analyzed by FACSCalibur (BD Bioscience, San Jose, Calif.) and Flowjo software. Data were analyzed with Prism 6 (GraphPad Software, San Diego, Calif.) using non-linear regression, and EC₅₀ values were calculated (FIGS. 2A-2L and Table 3).
readout.type: Top (best-fit value)
Enter a number only.

Fill blank: measured Top (best-fit value) of the binder 51F3D2G4 (antibody, V domains shown, Mouse mAb from hybridoma culture) VH: QVQLQQSGAELARPGASVRLSCKASGYIFTGYGISWVKQRTGQGLEWIGEIFPRTANTYFNEKFKGKATLTADKSSSTAYMELRSLTSEDSAVYFCARDYDPYYALDYWGQGTSVTVSS VL: DIVMTQSHKFMSTSVGDRVTITCKASQDVSTAVDWYQQKPGQSPKLLIYSASYRYTGVPDRFTGSGSGTAFTFTISSEQAEDLAVYYCQQHYSVPFTFGGGTKLEIK is ____.
1720

Fill blank: measured Top (best-fit value) of the binder 25B6E5D8 (antibody, V domains shown, Mouse mAb from hybridoma culture) VH: QFQLQQSGAELVRPGSSVKISCKASGYEFSSNWMNWVKQRPGQSLEWIGQIWPGDGDTNYNGKFRGKATLTSDKSSSTAYMQLNSLTSEDSAVYFCARGRASFYFDYWGQGTALTVSS VL: DIVLTQSPASLAVSLGQRATISCRASESVDDYGNSFMHWYQQKPGQPPKLLIYRASNLESGIPVRFSGSGSRTDFTLTINPVEADDVATYYCQQSNEDPHTFGGGTKLEIK is ____.
1410

Fill blank: measured Top (best-fit value) of the binder 30A6B2D9 (antibody, V domains shown, Mouse mAb from hybridoma culture) VH: EGQLQQSGAGLVKPGASVNLSCTASGFNIKDTYIHWMKQRPEQGLEWIGRIAPTNGNTKYDPTFQGKATITADSSSNTAYLQVSSLTSEDTAVYYCSRGGIYYYGSHWYFDVWGAGTTVTVSS VL: SVLMTQTPLSLPVSLGDQASISCRSSQNIVYSDGDTYLEWYLQKPGQSPKLLIFKVSNRFFGVPDRFSGSGSGTDFTLKINRVEAEDLGVYYCFQGSHVPFTFGSGTKLEIK is ____.
1640

Fill blank: measured Top (best-fit value) of the binder 18B7F4G8 (antibody, V domains shown, Mouse mAb from hybridoma culture) VH: DVQLQESGPDLVKPSQSLSLTCTVTGYSITSGYTWHWIRQFPGNKLEWMGYIHYSGSTKYNPSLKSRFSITRDTSKNQFFLQLNSMTAEDTATYYCARNSLFASWGHGTLVTVSA VL: DIVLTQSPASLAVSLGQRATISCRASESVDTYGDSFMHWFQQKPGQPPKLLIYRASNLESGIPARFSGSGSRTDFTLTINPVEADDVATYYCQQSNEAPYTFGGGTKLEIK is ____.
399
